Biological target: T1, human NMI (N-myc Interacting protein) (human, UniProt Q13287 1-307, limits assumed)
T1 construct: Immunogen and ELISA coating antigen; also called hNMI; antigen 1
T1 sequence (looked up): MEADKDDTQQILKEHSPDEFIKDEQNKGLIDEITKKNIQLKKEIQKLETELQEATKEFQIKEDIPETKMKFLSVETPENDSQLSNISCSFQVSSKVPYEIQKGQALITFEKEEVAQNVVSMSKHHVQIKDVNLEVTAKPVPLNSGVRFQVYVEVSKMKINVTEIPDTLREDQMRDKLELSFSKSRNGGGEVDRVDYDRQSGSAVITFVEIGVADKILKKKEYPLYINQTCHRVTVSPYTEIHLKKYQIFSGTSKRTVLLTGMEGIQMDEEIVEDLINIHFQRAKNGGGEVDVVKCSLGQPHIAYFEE
Test: I-ELISA, hNMI coated 1 ug/mL; antibody 4.8828125 ng/mL
quantity_measured: OD450
Please provide the amount together with its unit, number first.

What value of measured OD450 is listed for 98G10 (antibody, V domains shown, Rabbit monoclonal antibody; also called 98G10-1; 98G10-1-biotin (biotin-labelled form)) VH: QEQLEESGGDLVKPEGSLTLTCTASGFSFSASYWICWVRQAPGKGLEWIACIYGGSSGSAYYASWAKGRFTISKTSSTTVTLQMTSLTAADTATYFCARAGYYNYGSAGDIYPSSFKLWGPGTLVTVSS VL: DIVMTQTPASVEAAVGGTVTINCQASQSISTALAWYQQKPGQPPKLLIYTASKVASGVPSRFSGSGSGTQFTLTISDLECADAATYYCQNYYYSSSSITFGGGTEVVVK ?
0.115 OD450
